# experiment.description: small-molecule binders of probe aInhba, primary screen, biochemical, small-molecule microarray, 635/667 nm fluorescence (AID 1148);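 note: score merges 667nm spot fluorescence with signal-to-noise for antibody binding to printed compounds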
# condition.context: higher = more signal
Criterion: composite z-score meeting or surpassing 0.09. Met: rule met. Not met: rule not met.

Below are worked cases with known answers.
NCCCCCNC(=O)[C@@H]1C[C@@H]2C(=O)N3CCC[C@H]3C(=O)N2[C@@H]1c1ccc(O)cc1    rule not met
C=C(COC)C(=O)CC[C@@H](OC(=O)c1cccnc1)c1ccccc1OCCO    rule not met
C[C@]1(C(=O)NCCN2CCOCC2)c2ccccc2C(=O)N(Cc2cc(F)cc(C(F)(F)F)c2)[C@H]1c1ccc(CO)cc1    rule not met

With those in mind, consider the next compound.
Quick check: does `O=c1cccc(-c2ccco2)o1` have composite z-score greater than or equal to 0.09?
rule not met
